targetOrTestSystem: human ether-à-go-go-related gene (hERG) potassium channel (human)
assayOverview: primary screen, population patch clamp on CHO cells stably expressing hERG; higher = less effect of the substance
In all, about 310,000 compounds went through this assay and about 2,200 (0.71%) showed an effect of 50% or more. Effects have a minus sign here. Only a selection was taken, and strong results are over-represented in it overall.
Recorded hERG current change (%, negative = inhibition) at 1uM by entry
measuredMetric: hERG current change (%, negative = inhibition) at 1uM (%)

[
  {
    "sampleSmiles": "COc1cccc(CNC(=O)Cc2nc3nc(C)cc(C)n3n2)c1",
    "number": 14.5
  },
  {
    "sampleSmiles": "COc1ccc(CCNC(=O)c2cnc3ccccn3c2=O)cc1",
    "number": -1.13
  },
  {
    "sampleSmiles": "CCN(CC)S(=O)(=O)c1ccc(N/N=C/c2cc(OC)c(OC)cc2OC)nc1",
    "number": 17.4
  },
  {
    "sampleSmiles": "Cc1ccc(Cn2c(=N)c(C#N)cc3c(=O)n4cccc(C)c4nc32)cc1",
    "number": -2.14
  },
  {
    "sampleSmiles": "COc1ccc(CCNC(=O)c2cc3c(=O)n4ccccc4nc3n(C3CCCCC3)c2=N)cc1",
    "number": -67.6
  },
  {
    "sampleSmiles": "O=C(CSc1nnc(-c2ccncc2)o1)Nc1nncs1",
    "number": 15.3
  },
  {
    "sampleSmiles": "O=C(CSc1nnc(-c2ccccc2Br)o1)Nc1nncs1",
    "number": -63.5
  },
  {
    "sampleSmiles": "CCN(CC)C(=O)C(=O)c1ccn(-c2c(C)csc2C(=O)OC)c1",
    "number": 7.53
  },
  {
    "sampleSmiles": "CCOC(=O)N1CCC(NCCNC(=O)c2cccs2)CC1",
    "number": 5.13
  },
  {
    "sampleSmiles": "CCc1nn(CC(=O)NCCCN(C)C2CCCCC2)c(=O)c2cc3occc3n12",
    "number": 2.42
  }
]

----------
targetOrTestSystem: human ether-à-go-go-related gene (hERG) potassium channel (human, UniProt Q12809)
Sequence (Q12809 whole entry, looked up): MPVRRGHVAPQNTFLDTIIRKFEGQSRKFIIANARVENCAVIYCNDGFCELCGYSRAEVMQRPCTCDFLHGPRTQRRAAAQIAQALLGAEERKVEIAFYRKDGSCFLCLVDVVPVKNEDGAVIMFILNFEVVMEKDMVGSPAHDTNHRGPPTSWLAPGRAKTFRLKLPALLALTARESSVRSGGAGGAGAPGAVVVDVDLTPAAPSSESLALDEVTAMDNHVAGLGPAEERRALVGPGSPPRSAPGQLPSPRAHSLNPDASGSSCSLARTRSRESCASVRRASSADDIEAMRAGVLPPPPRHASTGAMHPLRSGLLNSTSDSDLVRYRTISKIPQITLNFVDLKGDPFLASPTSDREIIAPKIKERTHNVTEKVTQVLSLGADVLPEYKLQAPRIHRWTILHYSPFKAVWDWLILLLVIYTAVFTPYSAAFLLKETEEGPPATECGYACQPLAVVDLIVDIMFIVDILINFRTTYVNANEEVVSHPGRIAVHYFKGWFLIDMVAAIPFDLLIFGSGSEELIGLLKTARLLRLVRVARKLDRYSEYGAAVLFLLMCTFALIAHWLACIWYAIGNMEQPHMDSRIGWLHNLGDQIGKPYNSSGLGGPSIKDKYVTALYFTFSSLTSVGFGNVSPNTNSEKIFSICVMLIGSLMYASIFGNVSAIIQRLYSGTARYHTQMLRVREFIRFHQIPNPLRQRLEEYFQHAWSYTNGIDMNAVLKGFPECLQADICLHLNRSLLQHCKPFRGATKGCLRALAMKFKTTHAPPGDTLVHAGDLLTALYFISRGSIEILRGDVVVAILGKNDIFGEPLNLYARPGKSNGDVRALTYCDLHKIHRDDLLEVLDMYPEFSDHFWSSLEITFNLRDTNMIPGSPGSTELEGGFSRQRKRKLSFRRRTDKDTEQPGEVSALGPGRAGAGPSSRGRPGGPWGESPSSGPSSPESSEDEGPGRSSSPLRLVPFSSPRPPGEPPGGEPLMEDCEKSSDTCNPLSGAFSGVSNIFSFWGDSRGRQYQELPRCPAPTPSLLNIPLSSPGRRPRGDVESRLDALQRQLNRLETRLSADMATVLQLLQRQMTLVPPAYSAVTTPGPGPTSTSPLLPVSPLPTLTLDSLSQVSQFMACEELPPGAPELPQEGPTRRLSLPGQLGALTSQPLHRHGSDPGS
assayOverview: primary screen, population patch clamp on CHO cells stably expressing hERG; higher = less effect of the substance
The whole screen tested about 310,000 compounds, of which about 2,200 (0.71%) showed an effect of 50% or more. Effects have a minus sign here. This excerpt belongs to a sample that is enriched for strong results.
measuredMetric: hERG current change (%, negative = inhibition) at 1uM (%)

[
  {
    "molecule": "CC1CCCN(CCCNC(=O)c2cn(C)c3ccc(S(=O)(=O)N(C)C4CCCCC4)cc3c2=O)C1 (stereo not drawn)",
    "number": -13.2
  },
  {
    "molecule": "OC(c1ccccc1)(c1ccc(Cl)cc1)C1CN2CCC1CC2 (stereo not drawn)",
    "number": -11.9
  },
  {
    "molecule": "CC1CCN(CCc2nc3cc(NS(=O)(=O)c4ccc(F)cc4)ccc3n2C)CC1",
    "number": -54.8
  },
  {
    "molecule": "CCn1nc(C)cc1C(=O)Sc1cccc(Cl)c1",
    "number": 10.9
  },
  {
    "molecule": "Cc1nc2ccccc2c(=O)n1NC(=O)/C=C/c1ccccc1",
    "number": -0.535
  },
  {
    "molecule": "O=C(O)CCn1cc(/C=C/C(=O)c2ccc(Cl)cc2)c(-c2cccc(Br)c2)n1",
    "number": 14.7
  },
  {
    "molecule": "Cc1ccc(S(=O)(=O)N(CC(O)CN2CCOCC2)c2cccc([N+](=O)[O-])c2)cc1 (stereo not drawn)",
    "number": 2.27
  },
  {
    "molecule": "O=[N+]([O-])c1ccccc1S(=O)(=O)N(CC(O)CN1CCCCC1)c1ccccc1 (stereo not drawn)",
    "number": 2.79
  },
  {
    "molecule": "COc1ccccc1C(=O)Nc1ccon1",
    "number": -0.0061
  },
  {
    "molecule": "CCN(CC)CCCNC(=O)c1cn(CC)c2ccc(S(=O)(=O)N(C)C3CCCCC3)cc2c1=O",
    "number": -5.96
  },
  {
    "molecule": "O=[N+]([O-])c1cccc(N(CC(O)CN2CCCCC2)S(=O)(=O)c2ccccc2)c1 (stereo not drawn)",
    "number": -24.2
  },
  {
    "molecule": "COc1ccc(C2OC(=O)CC2C(=O)N2CCN(c3cc(Cl)ccc3C)CC2)cc1OC (stereo not drawn)",
    "number": 7.68
  },
  {
    "molecule": "CCn1cc(C(=O)NCCCN2CCCC(C)C2)c(=O)c2cc(S(=O)(=O)N3CCOCC3)ccc21 (stereo not drawn)",
    "number": 16.1
  },
  {
    "molecule": "CCn1cc(C(=O)NCCCN2CCCCCC2)c(=O)c2cc(S(=O)(=O)N3CCc4ccccc4C3)ccc21",
    "number": -24.5
  },
  {
    "molecule": "CCC1CCCCN1CCCNC(=O)c1cn(C)c2ccc(S(=O)(=O)N(C)C3CCCCC3)cc2c1=O (stereo not drawn)",
    "number": -2.04
  },
  {
    "molecule": "CCOc1ccc(Br)cc1C1C(C(=O)OC)=C(N)Oc2cc(N(C)C)ccc21 (stereo not drawn)",
    "number": 16.6
  },
  {
    "molecule": "CCn1cc(C(=O)NCCCN2CCCC(C)C2)c(=O)c2cc(S(=O)(=O)N(C)C3CCCCC3)ccc21 (stereo not drawn)",
    "number": -82
  },
  {
    "molecule": "CCn1cc(C(=O)NCCCN2CCCC(C)C2)c(=O)c2cc(S(=O)(=O)N3CCc4ccccc4C3)ccc21 (stereo not drawn)",
    "number": -64.2
  },
  {
    "molecule": "Cc1nc2ccccc2c(=O)n1NC(=O)/C=C/c1ccccc1Cl",
    "number": -51.1
  },
  {
    "molecule": "Cc1ccnc(N2C(=O)OC(C)(C)C2(C)O)c1 (stereo not drawn)",
    "number": -0.922
  },
  {
    "molecule": "O=[N+]([O-])c1ccc(S(=O)(=O)N(CC(O)CN2CCCCC2)c2ccccc2)cc1 (stereo not drawn)",
    "number": -80.4
  },
  {
    "molecule": "CCn1cc(C(=O)NCCCN2CCC(C)CC2)c(=O)c2cc(S(=O)(=O)N(C)C3CCCCC3)ccc21",
    "number": -74
  },
  {
    "molecule": "CNC(=O)C1=C(C)Nc2nc3ccccc3n2C1c1ccc(F)cc1 (stereo not drawn)",
    "number": 7.95
  },
  {
    "molecule": "COC(=O)c1ccccc1NC(=S)NC(=O)c1ccc(C)cc1",
    "number": 9.88
  },
  {
    "molecule": "O=[N+]([O-])c1cccc(N(CC(O)CN2CCCC2)S(=O)(=O)c2ccccc2)c1 (stereo not drawn)",
    "number": -25.9
  },
  {
    "molecule": "CCC1CCCCN1CCCNC(=O)c1cn(CC)c2ccc(S(=O)(=O)N(C)C3CCCCC3)cc2c1=O (stereo not drawn)",
    "number": -75.5
  },
  {
    "molecule": "CCCc1cc(=O)oc2cc(C)cc(OCC(=O)Nc3ccc(CN4CCOCC4)cc3)c12",
    "number": 10.4
  },
  {
    "molecule": "O=[N+]([O-])c1ccc(N(CC(O)CN2CCCCC2)S(=O)(=O)c2ccccc2)cc1 (stereo not drawn)",
    "number": -79.5
  },
  {
    "molecule": "Cc1ccc(C(=O)N2CCN(c3ccc([N+](=O)[O-])cc3-n3cccc3)CC2)cc1",
    "number": -16.4
  },
  {
    "molecule": "Cc1ccc(S(=O)(=O)N(CC(O)CN2CCCCC2)c2cccc([N+](=O)[O-])c2)cc1 (stereo not drawn)",
    "number": -73.1
  },
  {
    "molecule": "O=C(CN(c1ccc([N+](=O)[O-])cc1)S(=O)(=O)c1ccccc1)N1CCCCC1",
    "number": -0.85
  },
  {
    "molecule": "CCN1C(=S)SC(=O)C1=C1C=C(C)N(Cc2ccco2)C(C)=C1",
    "number": 1.56
  },
  {
    "molecule": "COc1ccc([N+](=O)[O-])cc1N(CC(O)CN1CCCCC1)S(=O)(=O)c1ccccc1 (stereo not drawn)",
    "number": 2.16
  },
  {
    "molecule": "CCOC(=O)N1CCC(N2CCN(c3cc(C)ccc3C)CC2)CC1",
    "number": -32.2
  },
  {
    "molecule": "CCn1cc(C(=O)NCCCN(CC(C)C)CC(C)C)c(=O)c2cc(S(=O)(=O)N(C)C3CCCCC3)ccc21",
    "number": -6.68
  },
  {
    "molecule": "Cl.OC(c1ccccc1)(c1ccccc1)C1CN2CCC1CC2 (stereo not drawn)",
    "number": -1.7
  }
]
